The entries below are paired with their reported inhibition at 10 µM.
- measured on: LYN (Homo sapiens)
- Construct: purchased DiscoverX (KINOMEscan)
- Sequence (P07948 whole entry): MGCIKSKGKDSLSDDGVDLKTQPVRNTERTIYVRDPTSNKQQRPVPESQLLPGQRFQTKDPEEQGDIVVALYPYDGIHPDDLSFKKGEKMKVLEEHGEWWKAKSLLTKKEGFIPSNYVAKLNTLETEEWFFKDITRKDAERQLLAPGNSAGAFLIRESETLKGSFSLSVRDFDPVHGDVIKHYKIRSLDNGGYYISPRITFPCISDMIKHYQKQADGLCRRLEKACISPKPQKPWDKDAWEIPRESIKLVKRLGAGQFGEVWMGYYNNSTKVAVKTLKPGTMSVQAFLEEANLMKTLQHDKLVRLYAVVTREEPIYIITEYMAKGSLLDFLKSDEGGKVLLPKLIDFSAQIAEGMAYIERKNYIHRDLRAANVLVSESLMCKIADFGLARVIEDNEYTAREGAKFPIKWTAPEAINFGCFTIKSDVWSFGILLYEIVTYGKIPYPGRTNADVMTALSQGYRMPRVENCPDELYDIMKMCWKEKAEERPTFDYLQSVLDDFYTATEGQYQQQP
- experiment notes: KINOMEscan competitive binding
- conditions: 10 µM, n=1; kinase LYN; read-out: Percent inhibition LYN
The reply should be a number in %, with the unit left off.

Use the examples below as a reference point.
inhibition at 10 µM reading for C[C@@H](Oc1cc(-c2cnc3ccccn23)sc1C(N)=O)c1ccccc1Cl : 0

Form: compound = Cc1ccc(O)cc1Nc1ccnc(Nc2cccc(C(N)=O)c2)n1 ; inhibition at 10 µM = 99.9

Now consider the entry below.
// field: inhibition at 10 µM; key: Fc1cccc(COc2ccc(Nc3ncnc4c3CN(CCN3CCOCC3)CC4)cc2Cl)c1 ; value = 0
